# systemName: furin, P09958;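 further: purified furin at 1:10 enzyme:substrate in 50 mM HEPES pH 7.5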
# Sequence (P09958 whole entry): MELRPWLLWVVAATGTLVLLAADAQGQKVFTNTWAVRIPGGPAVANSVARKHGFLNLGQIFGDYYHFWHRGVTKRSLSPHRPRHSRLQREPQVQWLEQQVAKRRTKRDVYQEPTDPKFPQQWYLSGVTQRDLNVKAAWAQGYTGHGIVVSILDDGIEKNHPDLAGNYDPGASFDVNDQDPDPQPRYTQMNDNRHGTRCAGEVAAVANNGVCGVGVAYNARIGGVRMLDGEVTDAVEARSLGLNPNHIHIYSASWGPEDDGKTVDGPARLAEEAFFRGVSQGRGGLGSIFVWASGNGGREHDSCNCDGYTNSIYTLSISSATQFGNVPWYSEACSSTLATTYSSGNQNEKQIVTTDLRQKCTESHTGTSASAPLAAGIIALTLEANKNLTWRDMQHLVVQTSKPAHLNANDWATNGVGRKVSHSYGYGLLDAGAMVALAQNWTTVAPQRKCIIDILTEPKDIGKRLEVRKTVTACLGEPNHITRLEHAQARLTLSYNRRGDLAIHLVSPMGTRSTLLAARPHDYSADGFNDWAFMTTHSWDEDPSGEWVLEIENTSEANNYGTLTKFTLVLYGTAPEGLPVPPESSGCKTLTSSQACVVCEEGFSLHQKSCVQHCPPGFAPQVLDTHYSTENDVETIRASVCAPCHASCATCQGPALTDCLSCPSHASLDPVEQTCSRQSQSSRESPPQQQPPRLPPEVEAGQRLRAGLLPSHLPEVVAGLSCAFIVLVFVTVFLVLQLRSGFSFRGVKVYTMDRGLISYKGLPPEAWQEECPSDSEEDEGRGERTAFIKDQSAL
# methodDescription: furin cleavage Z-score vs untreated control; higher = more cleavage, active = 3.5 or more, inactive = 1 or less, 8 variable residues between constant flanks
# conditionNotes: 7.5 min
The list shows a part of the results. The true hit rate is not given.
Classify as follows. Reported furin cleavage Z-score greater than or equal to -0.8: condition met. Reported furin cleavage Z-score below: condition not met.

INSERT INTO results (sequencecode, category) VALUES
  ('CARLKRLFLAAGNASASA [FS-2991]', 'condition met'),
  ('CAEVVCHRPSAGNASASA [HC2350]', 'condition met'),
  ('CAVRKRSPWLAGNASASA [FS-3142]', 'condition not met'),
  ('CAMILMTHFFAGNASASA [HC1582]', 'condition met'),
  ('CATRGERCDLAGNASASA [HC484]', 'condition met'),
  ('CARLKPTLHGAGNASASA [HC967]', 'condition met');

Let's switch to this sequence now.
Quick check: does CAVRKRQVSLAGNASASA [FS-3141] have furin cleavage Z-score greater than or equal to -0.8?
condition not met
